// reported LogP for each item listed
experimental conditions: pH 2.7
Marks after values point to notes of the source that are not given here.
measured quantity: LogP

# molecule, measured quantity, reported value
measured = [
    ("COc1ccc(OC(=O)Nc2cccc(CO/N=C(/c3ccccc3)c3noc(=O)n3C)n2)cc1", "LogP", "3.69 [a]"),
    ("CC(Oc1ccccc1)C(=O)Nc1nc(CO/N=C(/c2cccc(F)c2)c2noc(=O)n2C)cs1 (centres unmarked)", "LogP", "3.76 [a]"),
    ("CCCCC(CC)COC(=O)Nc1cccc(CO/N=C(/c2ccccc2)c2noc(=O)n2C)n1 (racemic)", "LogP", "5.54 [a]"),
    ("Cn1c(/C(=N\\OCc2cccc(NC(=O)OCc3ccccc3)n2)c2ccccc2)noc1=O", "LogP", "3.99 [a]"),
    ("Cn1c(/C(=N\\OCc2cccc(NC(=O)OCc3ccncc3)n2)c2ccccc2)noc1=O", "LogP", "2.01 [a]"),
    ("Cc1ccc(C(=O)Nc2cccc(CO/N=C(/c3ccccc3)c3noc(=O)n3C)n2)cc1", "LogP", "3.85 [a]"),
    ("Cc1ccc(C)c(C(=O)Nc2cccc(CO/N=C(/c3ccccc3)c3noc(=O)n3C)n2)c1", "LogP", "4.06 [a]"),
    ("Cn1c(/C(=N\\OCc2cccc(NC(=O)C3(c4ccccc4)CC3)n2)c2ccccc2)noc1=O", "LogP", "4.43 [a]"),
]

====

Test system: Puccinia recondita
assay: In vivo test on Puccinia recondita (brown rust)
experimental conditions: wheat plants, spray, 500 ppm, grading 10 days after contamination
Label 1 when Eff. % < 80%; otherwise -1.

# compound, label value
rows = [
    ("CCCCCOC(=O)Nc1cccc(CO/N=C(/c2cccc(OC)c2)c2noc(=O)n2C)n1", 1),
    ("Cc1ccc(/C(=N/OCc2csc(N)n2)c2noc(=O)[nH]2)cc1", -1),
    ("CCC(C)(C)OC(=O)Nc1cccc(CO/N=C(/c2ccccc2)c2noc(=O)n2C)n1", -1),
    ("COc1ccc(/C(=N/OCc2cccc(NC(=O)C(F)(F)F)n2)c2noc(=O)n2C)cc1", -1),
    ("CC(Nc1cccc(CO/N=C(/c2ccccc2)c2noc(=O)n2C)n1)c1ccccc1 (stereo not shown)", -1),
    ("CCCC(C)C(=O)Nc1cccc(CO/N=C(/c2ccccc2)c2noc(=O)n2CC)n1 (stereo not shown)", -1),
    ("CCCCC(=O)Nc1cccc(CO/N=C(/c2cccc(F)c2)c2noc(=O)n2C)n1", -1),
    ("CCN(CC)c1cccc(CO/N=C(/c2ccccc2)c2noc(=O)n2C)n1", -1),
    ("Cn1c(/C(=N\\OCc2cccc(NC(=O)OC3CCCCC3)n2)c2ccc(F)cc2)noc1=O", 1),
    ("Cn1c(/C(=N\\OCc2cccc(NC(=O)CCCC[n+]3ccccc3)n2)c2ccccc2)noc1=O.O=C[O-]", -1),
    ("Cn1c(/C(=N\\OCc2cccc(NC(=O)CCc3ccccc3)n2)c2ccc(F)cc2)noc1=O", 1),
    ("Cn1c(/C(=N\\OCc2cccc(NC(=O)CC(C)(C)C)n2)c2ccccc2)noc1=O", -1),
    ("COc1cccc(C(=O)Nc2nc(CO/N=C(/c3ccccc3)c3noc(=O)n3C)cs2)c1", -1),
    ("CC(C)C(C)OC(=O)Nc1cccc(CO/N=C(/c2ccccc2)c2noc(=O)n2C)n1 (stereo not shown)", 1),
    ("CCCCCC(=O)Nc1cccc(CO/N=C(/c2cccc(OC)c2)c2noc(=O)n2C)n1", 1),
    ("COc1cccc(/C(=N/OCc2cccc(NC(=O)OCCc3ccccc3)n2)c2noc(=O)n2C)c1", 1),
]
